molecular target: T1, Recombinant Human DLL4 (R&D Systems Cat#1506-D4/CF) (human, UniProt Q9NR61 27-524); assay: ECL (Meso Scale Discovery) multispot binding assay, DLL4 immobilised, Fab at 100 nM
T1 construct: Bought recombinant protein; also called delta-like protein 4; Delta-like 4
Reported ECL signal by item:
Field format: numeric only.

- Binder: "Fab VH5-51_IGHD5-18*01>3_IGHJ4*01 G100K/G104T (H:KT) & V3-4_IGLJ1*01 P35A (Fab, V domains shown, Fab expressed in E. coli; Plasmid A adds CH1 with His6 and Flag tags to the heavy chain; Plasmid E adds lambda CL to the light chain; also called G100K/G104T & P35A) VH: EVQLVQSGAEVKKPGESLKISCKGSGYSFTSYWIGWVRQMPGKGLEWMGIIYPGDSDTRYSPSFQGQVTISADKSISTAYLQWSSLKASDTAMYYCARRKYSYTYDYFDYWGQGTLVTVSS VL: QTVVTQEPSFSVSPGGTVTLTCGLSSGSVSTSYYASWYQQTPGQAPRTLIYSTNTRSSGVPDRFSGSILGNKAALTITGAQADDESDYYCVLYMGSGISYVFGTGTKVTVL"
  Reported Result: 8260

Continue with the next binder.
Query: For Fab VH5-51_IGHD5-18*01>3_IGHJ4*01 G100K/G104T (H:KT) & V3-4_IGLJ1*01 S36A (Fab, V domains shown, Fab expressed in E. coli; Plasmid A adds CH1 with His6 and Flag tags to the heavy chain; Plasmid E adds lambda CL to the light chain; also called G100K/G104T & S36A) VH: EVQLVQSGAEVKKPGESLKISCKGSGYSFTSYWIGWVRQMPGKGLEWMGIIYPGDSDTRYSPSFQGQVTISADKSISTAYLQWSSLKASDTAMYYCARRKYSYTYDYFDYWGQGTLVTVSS VL: QTVVTQEPSFSVSPGGTVTLTCGLSSGSVSTSYYPAWYQQTPGQAPRTLIYSTNTRSSGVPDRFSGSILGNKAALTITGAQADDESDYYCVLYMGSGISYVFGTGTKVTVL , what is its reported ECL signal?
Reply: 9690
